# tgt: GST-hTEAD1 (Homo sapiens)
pKd: −log10 of the molar value. Peptide text beside a SMILES is read from it.
measured_attribute: pKd

The reported GST-hTEAD1 (Homo sapiens) pKd of CC[C@H](C)[C@H](NC(=O)[C@H](CCC(N)=O)NC(=O)[C@H](CC(C)C)NC(=O)[C@H](Cc1c[nH]c2ccccc12)NC(=O)[C@@H](NC(=O)[C@H](CC(=O)O)NC(C)=O)[C@@H](C)O)C(=O)N[C@@H](CCCCN)C(=O)N[C@@H](C)C(=O)N[C@@H](C)C(N)=O [compound 6] (Ac-DTWLQIKAA-NH2) is < 4.00

----------
# tgt: hTEAD1 (Homo sapiens, UniProt P28347)
# Construct: CDNA of hTEAD1(209–426) fused with an N-terminal GST tag; GST (N); 6x His-tag (N); 3C protease cleavage site (N); made in house; host or cells: Escherichia coli BL21 DE3 RIL(K+)
# Sequence (P28347 209-426): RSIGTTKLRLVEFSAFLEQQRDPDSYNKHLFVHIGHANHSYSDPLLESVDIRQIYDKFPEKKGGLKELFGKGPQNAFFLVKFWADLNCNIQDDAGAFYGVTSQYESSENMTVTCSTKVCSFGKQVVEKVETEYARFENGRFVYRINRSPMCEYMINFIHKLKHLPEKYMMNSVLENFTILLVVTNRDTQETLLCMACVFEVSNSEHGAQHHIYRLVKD
# protocol_details: Direct fluorescence polarization with hTEAD1
# Type: binding
# assay_conditions: direct FP, fluorescent cofactor 10 nM titrated with hTEAD1, 1 h; triplicates; read-out: FP hTEAD1 Kd of FITC labelled cofactor
measured_attribute: pKd
Give bare numbers, as −log10 of the molar value.

The reported hTEAD1 (Homo sapiens, UniProt P28347) pKd of Ac-DPVVEEHFRRSLGKNYKEPEPAPNSVSITGSVDDHFAKALGDTWLQIKAAKDSA-NH2 (N-terminus and C-terminus assumed) [compound 1] is 7.77

----------
# tgt: mTEAD4 (Mus musculus)
# Construct: Mouse TEAD4(210–427) cDNA fused with a 6x His-tag and a 3C protease cleavage site; 6x His-tag; 3C protease cleavage site
# Sequence (Q62296 210-427): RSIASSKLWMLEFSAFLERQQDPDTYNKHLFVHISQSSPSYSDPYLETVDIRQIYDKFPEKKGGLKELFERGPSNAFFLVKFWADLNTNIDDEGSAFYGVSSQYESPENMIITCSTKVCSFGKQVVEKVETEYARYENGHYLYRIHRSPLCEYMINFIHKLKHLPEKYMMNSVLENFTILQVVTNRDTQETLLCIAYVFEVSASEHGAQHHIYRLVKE
# protocol_details: SPR binding to immobilised mTEAD4
# assay_conditions: mTEAD4 amine-coupled on CM5, multi-cycle, steady-state fit 1:1 model, 10 mM HEPES 150 mM NaCl 0.05% Tween-20 pH 7.4, 0.3% DMSO, 20 °C, Fig. 1 values n = 1 replicate
pKd: −log10 of the molar value. Peptide text beside a SMILES is read from it.
measured_attribute: pKd

For every item in the list below, what is its measured pKd?
1. CC(=O)N[C@@H](CC(=O)O)C(=O)N1CCC[C@H]1C(=O)N[C@H](C(=O)N[C@H](C(=O)N[C@@H](CCC(=O)O)C(=O)N[C@@H](CCC(=O)O)C(=O)N[C@@H](Cc1c[nH]cn1)C(=O)N[C@@H](Cc1ccccc1)C(=O)N[C@@H](CCCNC(=N)N)C(=O)N[C@@H](CCCNC(=N)N)C(=O)N[C@@H](CO)C(=O)N[C@@H](CC(C)C)C(=O)NCC(=O)N[C@@H](CCCCN)C(=O)N[C@@H](CC(N)=O)C(=O)N[C@@H](Cc1ccc(O)cc1)C(N)=O)C(C)C)C(C)C [compound 2] (Ac-DPVVEEHFRRSLGKNY-NH2)
2. CC[C@H](C)[C@H](NC(=O)[C@H](CCC(N)=O)NC(=O)[C@H](CC(C)C)NC(=O)[C@H](Cc1c[nH]c2ccccc12)NC(=O)[C@@H](NC(=O)[C@H](CC(=O)O)NC(C)=O)[C@@H](C)O)C(=O)N[C@@H](CCCCN)C(=O)N[C@@H](C)C(=O)N[C@@H](C)C(N)=O [compound 6] (Ac-DTWLQIKAA-NH2)
3. CC[C@H](C)[C@H](NC(=O)[C@H](CO)NC(=O)[C@@H](NC(=O)[C@H](CO)NC(=O)[C@H](CC(N)=O)NC(=O)[C@@H]1CCCN1C(=O)[C@H](C)NC(=O)[C@@H]1CCCN1C(=O)[C@H](CCC(=O)O)NC(=O)[C@@H]1CCCN1C(=O)[C@H](CCC(=O)O)NC(=O)[C@H](CCCCN)NC(C)=O)C(C)C)C(=O)N[C@H](C(=O)NCC(N)=O)[C@@H](C)O [compound 3] (Ac-KEPEPAPNSVSITG-NH2)
4. CC(=O)N[C@@H](CO)C(=O)N[C@H](C(=O)N[C@@H](CC(=O)O)C(=O)N[C@@H](CC(=O)O)C(=O)N[C@@H](Cc1c[nH]cn1)C(=O)N[C@@H](Cc1ccccc1)C(=O)N[C@@H](C)C(=O)N[C@@H](CCCCN)C(=O)N[C@@H](C)C(=O)N[C@@H](CC(C)C)C(=O)NCC(N)=O)C(C)C [compound 5] (Ac-SVDDHFAKALG-NH2)

1: 4.66; 2: < 4.00; 3: < 4.00; 4: < 4.00
